The values you see were collected from ChEMBL document CHEMBL3580592.

Here the recorded CC50 is given for each entry.
Assay: Cytotoxicity against African green monkey Vero cells assessed as cell death by MTT assay
Assay type: cell-based
Conditions: chlorocebus sabaeus, read-out: LC50 (the source's name)
quantity kind: CC50 (µM)

> print(dat)
                           smiles.structure  quantity.kind  result
1  COc1ccc(Nc2c(-c3ccc(F)cc3)nc3cnccn23)cc1           CC50      72
2  COc1ccc(-c2nc3cc(C)ccn3c2Nc2cc(OC)c(OC)c(OC)c2)cc1O           CC50      48
3  COc1ccc(-c2nc3sccn3c2Nc2cc(OC)c(OC)c(OC)c2)cc1O           CC50      62
